Taken from ChEMBL document CHEMBL4190377.

Target: UniProt:P15145
Sequence (P15145 whole entry): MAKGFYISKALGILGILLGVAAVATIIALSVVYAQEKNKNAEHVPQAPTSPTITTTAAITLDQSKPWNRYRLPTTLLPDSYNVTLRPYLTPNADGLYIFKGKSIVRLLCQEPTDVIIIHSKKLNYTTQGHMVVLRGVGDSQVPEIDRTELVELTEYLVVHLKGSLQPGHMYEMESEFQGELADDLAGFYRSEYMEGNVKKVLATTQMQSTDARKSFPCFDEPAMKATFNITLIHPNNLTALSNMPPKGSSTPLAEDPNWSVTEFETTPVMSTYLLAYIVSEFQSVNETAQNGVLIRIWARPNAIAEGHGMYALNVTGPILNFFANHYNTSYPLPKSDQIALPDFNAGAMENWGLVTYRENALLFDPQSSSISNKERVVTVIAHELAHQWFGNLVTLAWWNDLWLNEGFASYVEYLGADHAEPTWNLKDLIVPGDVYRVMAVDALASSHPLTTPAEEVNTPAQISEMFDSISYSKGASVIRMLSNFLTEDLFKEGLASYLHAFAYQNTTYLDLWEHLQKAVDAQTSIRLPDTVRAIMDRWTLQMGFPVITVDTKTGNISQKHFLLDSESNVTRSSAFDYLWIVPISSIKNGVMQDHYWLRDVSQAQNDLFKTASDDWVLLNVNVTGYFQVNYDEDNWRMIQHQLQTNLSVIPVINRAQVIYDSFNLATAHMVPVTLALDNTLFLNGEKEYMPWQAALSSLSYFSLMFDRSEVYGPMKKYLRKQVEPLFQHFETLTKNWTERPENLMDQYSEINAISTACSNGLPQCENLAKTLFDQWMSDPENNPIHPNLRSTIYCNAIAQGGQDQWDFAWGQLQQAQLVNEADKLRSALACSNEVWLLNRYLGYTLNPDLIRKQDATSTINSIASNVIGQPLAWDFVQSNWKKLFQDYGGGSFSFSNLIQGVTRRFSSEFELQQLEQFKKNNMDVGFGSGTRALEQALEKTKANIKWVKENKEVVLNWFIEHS
Assay: Inhibition of APN in porcine kidney using Ala-betaNA as substrate preincubated for 10 mins followed by substrate addition measured after 30 mins by fluorescence spectrofluorometric method
QUANTITY MEASURED: pKi
Keep it numeric: pKi is minus log10 of the concentration in mol/L.

Qu. State the recorded pKi for this entry: CC[C@H](C)[C@H](NC(=O)C(S)C(N)CCC(=O)O)C(=O)N[C@@H](CC(=O)O)C(=O)O (stereo partly specified)
Ans. 6.92

----------
Tested on: A549
Assay: Antiproliferative activity against human A549 cells over-expressing APN after 48 hrs by MTT assay
Assay type: functional, cell-based
Conditions: A549, 48 h
QUANTITY MEASURED: pIC50
Value format note: pIC50 is -log10 of concentration (mol/L); just state the number.

Qu. Looking for the measured pIC50 of CC(C)CC(NC(=O)C(O)C(N)Cc1ccccc1)C(=O)NC(CO)C(=O)NCc1ccccc1 (stereo unspecified) , can you help?
Ans. 4.44

----------
Test system: HL-60
Test: Antiproliferative activity against human HL60 cells after 48 hrs by MTT assay
Type: functional, cell-based
Settings: HL-60, 48 h
QUANTITY MEASURED: IC50 (nM)
Please respond with the number in nM and leave the unit unwritten.

Qu. Consider the compound shown here: `CC(C)C[C@@H](NC(=O)[C@H](Cc1ccccc1)NC(=O)[C@@H](O)CN)C(=O)O` What is its recorded IC50?
Ans. 170
